# measured.on: JH2 domain of human Tyk2 (Homo sapiens, UniProt P29597)
# Construct: 10×His-tagged TYK2 JH2 domain (amino acid 575-876)
# Sequence (P29597 575-876): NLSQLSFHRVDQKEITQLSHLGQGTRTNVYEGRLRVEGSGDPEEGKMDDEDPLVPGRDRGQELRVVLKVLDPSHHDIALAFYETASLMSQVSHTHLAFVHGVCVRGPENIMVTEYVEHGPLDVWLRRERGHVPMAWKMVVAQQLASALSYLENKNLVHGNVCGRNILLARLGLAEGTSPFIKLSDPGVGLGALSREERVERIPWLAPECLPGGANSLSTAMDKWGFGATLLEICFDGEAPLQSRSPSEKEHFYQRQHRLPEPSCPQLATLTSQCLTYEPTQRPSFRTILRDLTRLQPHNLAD
# method.description: JH2 biochemical assay (TR-FRET probe displacement)
# Type: binding
# assay.setup: JH2 biochemical assay
Where a name gives a salt, the structure may show the parent alone.
Can you tell me IC50 for the items I'm about to list?

Lab note: CC(=O)Nc1cc2c(cn1)C1(CC1)CN2c1cc(C)nc(N2CC(F)C2)n1 gave IC50 of ≤ 10 nM

Lab note: CC(=O)Nc1cc2c(cn1)C1(CC1)CN2c1cc(C)nc(C2CCS(=O)(=O)C2)n1 (stereo not shown) gave IC50 of 10 to 100 nM

Lab note: CC(=O)Nc1cc2c(cn1)C1(CC1)CN2c1cc(C(C)O)nc(C(C)(F)F)n1 (stereo not shown) gave IC50 of ≤ 10 nM

Lab note: COc1ccc(-c2cc(C)cc(N3CC4(CC4)c4cnc(NC(C)=O)cc43)n2)cn1 [Example 267, trifluoroacetate] gave IC50 of 100 to 1000 nM

Lab note: CCOc1cc(C)cc(N2CC3(CC3)c3cnc(NC(C)=O)cc32)n1 [Example 335, trifluoroacetate] gave IC50 of 10 to 100 nM

Lab note: CC(=O)Nc1cc2c(cn1)C1(CC1)CN2c1ncc(C)s1 [Example 78, trifluoroacetate] gave IC50 of 10 to 100 nM

Lab note: COc1cc(N2CCc3cnc(NC(C)=O)cc32)nc(C(C)(F)F)n1 gave IC50 of 10 to 100 nM

Lab note: CC(=O)Nc1cc2c(cn1)C1(CCNCC1)CN2c1ccnc(C(C)(F)F)n1 gave IC50 of ≥ 1000 nM

Lab note: CCc1cc(N2CC3(CC3)c3cnc(NC(C)=O)cc32)nc(C23COC(C2)C3)n1 gave IC50 of ≤ 10 nM

Lab note: CC(=O)Nc1cc2c(cn1)C1(CC1)CN2c1cc(C2CCC2)nc(C(C)(F)F)n1 gave IC50 of ≤ 10 nM

Lab note: CNCc1cc(N2CC3(CC3)c3cnc(NC(C)=O)cc32)nc(C(C)(F)F)n1 gave IC50 of 10 to 100 nM

Lab note: CC(=O)Nc1cc2c(cn1)C1(CC1)CN2c1cc(C)cc(OC2CC(F)C2)n1 (stereo not shown) [Example 348, trifluoroacetate] gave IC50 of 100 to 1000 nM

Lab note: CC(=O)Nc1cc2c(cn1)C1(CC1)CN2c1cc(C)[nH]c(=O)n1 gave IC50 of ≥ 1000 nM

Lab note: CC(=O)Nc1cc2c(cn1)C1(CC1)CN2c1cc(OC2COC2)nc(C(C)(F)F)n1 gave IC50 of ≤ 10 nM

Lab note: CC(=O)Nc1cc2c(cn1)C1(CC1)CN2c1cc(NC2CCSC2)nc(C(C)(F)F)n1 (stereo not shown) gave IC50 of ≤ 10 nM

Lab note: CC(=O)Nc1cc2c(cn1)C1(CC1)CN2c1cc(C)nc(C2CCN(C(C)C)CC2)n1 gave IC50 of ≥ 1000 nM

Lab note: CC(=O)Nc1cc2c(cn1)C1(CC1)CN2c1cc(C)cc(N2CC(C#N)C2)n1 gave IC50 of ≤ 10 nM

Lab note: CC(=O)Nc1cc2c(cn1)C1(CC1)CN2c1cc(NC[C@@H]2CCO2)nc(C(C)(F)F)n1 gave IC50 of ≤ 10 nM

Lab note: CCO/C=C\c1cc(N2CC3(CC3)c3cnc(NC(C)=O)cc32)nc(C(C)(F)F)n1 gave IC50 of ≤ 10 nM

Source of measurements: patent US20260258032A1
